- System: Haemophilus parainfluenzae
- protocol.text: growth AUC normalised to DMSO control (fraction of control); higher = less growth inhibition, active = hit call of the paper
- run.parameters: 20 µM
Think of 1 as a floor: if growth AUC normalised to DMSO control stands on it or above, it is 1.0; beneath it, 0.0.

Recorded results for 3 molecules are shown here.
INSERT INTO assay_data (molecule, class_name) VALUES
  ('Cn1c(=O)c2c(ncn2C)n(C)c1=O', 1.0),
  ('CCCc1nc2c(C)cc(-c3nc4ccccc4n3C)cc2n1Cc1ccc(-c2ccccc2C(=O)O)cc1', 1.0),
  ('CC(=O)OCC(=O)[C@H]1CC[C@H]2[C@@H]3CC[C@H]4C[C@H](O)CC[C@]4(C)[C@H]3C(=O)C[C@]12C [Alfadolone acetate]', 1.0);

Next, consider the following molecule.
# check: growth AUC normalised to DMSO control of CN[C@H]1CC[C@@H](c2ccc(Cl)c(Cl)c2)c2ccccc21 is greater than or equal to 1
0.0

---

- Test system: Haemophilus parainfluenzae
- protocol.text: growth AUC normalised to DMSO control (fraction of control); higher = less growth inhibition, active = hit call of the paper
- run.parameters: 20 µM
Counter-ions that a name gives are not always drawn.
readout.type: growth AUC normalised to DMSO control
Just the number, please, no unit attached.

INSERT INTO assay_data (molecule, readout_type, measurement) VALUES
  ('C[C@]12C=CC(=O)C=C1CC[C@@H]1[C@@H]2C(=O)C[C@@]2(C)[C@H]1CC[C@]2(O)C(=O)CO', 'growth AUC normalised to DMSO control', 1.01);

Looking up CCOC(=O)[C@@](C)(N)Cc1ccc(O)c(O)c1 [Methyldopate hydrochloride] , I see its growth AUC normalised to DMSO control listed as 0.995

response.value for CCCNC(C)(C)COC(=O)c1ccccc1 [Meprylcaine hydrochloride] (field: growth AUC normalised to DMSO control) = 1.03

---

- Tested on: Yersinia pseudotuberculosis
- protocol.text: growth AUC normalised to DMSO control (fraction of control); higher = less growth inhibition, active = hit call of the paper
- run.parameters: 20 µM
Counter-ions that a name gives are not always drawn.
Assign a class; possible classes are y = active, n = inactive

Worked cases, answers included:
INSERT INTO results (molecule, class_name) VALUES
  ('COc1ccc2c(c1)[C@]13CCCC[C@@H]1[C@H](C2)N(C)CC3 [Dextromethorphan hydrobromide monohydrate]', 'n'),
  ('CN(C)[C@@H]1C(=O)C(C(N)=O)=C(O)[C@@]2(O)C(=O)C3=C(O)c4c(O)cccc4[C@@](C)(O)[C@H]3[C@H](O)[C@@H]12 [Oxytetracycline dihydrate]', 'y'),
  ('COc1ccc(CCN2CCC(Nc3nc4ccccc4n3Cc3ccc(F)cc3)CC2)cc1', 'n'),
  ('NC(=O)C[S+]([O-])C(c1ccccc1)c1ccccc1 (configuration not stated)', 'n'),
  ('CCN(C(C)=O)c1cccc(-c2ccnc3c(C#N)cnn23)c1', 'n'),
  ('C=CCN1CC[C@]23c4c5ccc(O)c4O[C@H]2C(=O)CC[C@@]3(O)[C@H]1C5 [Naloxone hydrochloride]', 'n');

Proceed to the following item.
For CCC(=O)O[C@@](Cc1ccccc1)(c1ccccc1)[C@@H](C)CN(C)C [Levopropoxyphene napsylate] , which call appears in the assay record?
n

---

- System: Salmonella enterica typhimurium
- protocol.text: growth AUC normalised to DMSO control (fraction of control); higher = less growth inhibition, active = hit call of the paper
- run.parameters: 20 µM
The categories you may choose from are true for active, false for inactive

Would you please look over these solved cases?
INSERT INTO results (molecule, class_name) VALUES
  ('CCN(C)C(=O)Oc1cccc([C@H](C)N(C)C)c1', 'false'),
  ('CC(=O)[C@H]1CC[C@H]2[C@@H]3CC[C@H]4C[C@H](O)CC[C@]4(C)[C@H]3C(=O)C[C@]12C', 'false'),
  ('O=c1c2ccccc2[se]n1-c1ccccc1', 'false'),
  ('CCC(=O)O[C@@](Cc1ccccc1)(c1ccccc1)[C@@H](C)CN(C)C [Levopropoxyphene napsylate]', 'false'),
  ('NCCCNCCSP(=O)(O)O', 'false');

Could you now consider this next molecule?
Which outcome did this test record for the molecule CCC1(C)CC(=O)NC(=O)C1 [Bemegride] ?
false

---

- Test system: S. enterica typhimurium WT;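 further: active when median AUC fell below 0.1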
- protocol.text: growth AUC normalised to DMSO control (median) (fraction of control); higher = less growth inhibition, active = hit call of the paper
- run.parameters: 20 µM
Where a name gives a salt, the structure may show the parent alone.
readout.type: growth AUC normalised to DMSO control
Could you keep your reply to the number by itself?

INSERT INTO measurements (compound, target_entity, readout_type, measurement) VALUES
  ('O=C(NCNC(=O)NC1C(=O)NC(=O)N1CO)NC1C(=O)NC(=O)N1CO (stereo unspecified)', 'S. enterica typhimurium WT', 'growth AUC normalised to DMSO control', 0.998),
  ('C[N+]1(C)[C@@H]2CC[C@H]1C[C@@H](OC(=O)C(CO)c1ccccc1)C2 (stereo partly specified) [Methylatropine nitrate]', 'S. enterica typhimurium WT', 'growth AUC normalised to DMSO control', 0.999),
  ('O=C1CC[C@@]2(O)[C@H]3Cc4ccc(O)c5c4[C@@]2(CCN3CC2CC2)[C@H]1O5 [Naltrexone hydrochloride dihydrate]', 'S. enterica typhimurium WT', 'growth AUC normalised to DMSO control', 0.993),
  ('CCC1(C2=NCCN2)Cc2ccccc2O1 (stereo unspecified) [Efaroxan hydrochloride]', 'S. enterica typhimurium WT', 'growth AUC normalised to DMSO control', 0.997),
  ('COc1ccc(OC)c(C(O)C(C)N)c1 (stereo unspecified) [Methoxamine hydrochloride]', 'S. enterica typhimurium WT', 'growth AUC normalised to DMSO control', 1.01);

The recorded growth AUC normalised to DMSO control for CC(C)(N)Cc1ccccc1 [Phentermine hydrochloride] is 0.992

Briefly, growth AUC normalised to DMSO control measured for CC(=O)OC1CN2CCC1CC2 (stereo unspecified) [Aceclidine hydrochloride] : 1.01

Please fill in: growth AUC normalised to DMSO control reported for CNCC(O)c1ccc(O)cc1 (stereo unspecified) [Synephrine] = 1

Quick note, growth AUC normalised to DMSO control for CC(O)(CS(=O)(=O)c1ccc(F)cc1)C(=O)Nc1ccc(C#N)c(C(F)(F)F)c1 (stereo unspecified) [Bicalutamide] landed at 1.01

Looking up C=C(C)[C@@H]1[C@H]2OC(=O)[C@@H]1[C@]1(O)C[C@H]3O[C@]34C(=O)O[C@H]2[C@]14C , I found its growth AUC normalised to DMSO control recorded as 1.02

The value of growth AUC normalised to DMSO control measured for the compound CCn1cc(C(=O)O)c(=O)c2cc3c(cc21)OCO3 turned out to be 0.0291

---

List of growth AUC normalised to DMSO control values.
- System: Vibrio cholerae
- protocol.text: growth AUC normalised to DMSO control (fraction of control); higher = less growth inhibition, active = hit call of the paper
- run.parameters: 20 µM
Counter-ions that a name gives are not always drawn.
Enter a number only.

Worked set:
INSERT INTO results (compound, measurement) VALUES
  ('CN1CCN(C(=O)OC2c3nccnc3C(=O)N2c2ccc(Cl)cn2)CC1 (stereo not drawn) [Zopiclone]', 0.998),
  ('COc1ccc(C(CN(C)C)C2(O)CCCCC2)cc1 (stereo not drawn) [Venlafaxine]', 0.984),
  ('CN[C@@H]1[C@@H](O)[C@@H](O[C@@H]2[C@@H](O)[C@H](O[C@H]3O[C@H](CN)CC[C@H]3N)[C@@H](N)C[C@H]2N)OC[C@]1(C)O.CN[C@@H]1[C@@H](O)[C@@H](O[C@@H]2[C@@H](O)[C@H](O[C@H]3O[C@H]([C@@H](C)N)CC[C@H]3N)[C@@H](N)C[C@H]2N)OC[C@]1(C)O.CN[C@@H]1[C@@H](O)[C@@H](O[C@@H]2[C@@H](O)[C@H](O[C@H]3O[C@H]([C@@H](C)NC)CC[C@H]3N)[C@@H](N)C[C@H]2N)OC[C@]1(C)O [Gentamicine sulfate]', 1.04);

Input C=C1C[C@@H]2[C@H](CC[C@]3(C)C(=O)CC[C@@H]23)[C@@]2(C)C=CC(=O)C=C12 [Exemestane] . Output growth AUC normalised to DMSO control: 0.964

The value of growth AUC normalised to DMSO control measured for the compound CCN(C(C)=O)c1cccc(-c2ccnc3c(C#N)cnn23)c1 [Zaleplon] turned out to be 0.97

Recorded result, CC(=O)OCC1=C(C(=O)O)N2C(=O)[C@@H](N)[C@H]2SC1 [Cephalosporanic acid, 7-amino] , growth AUC normalised to DMSO control: 0.968

Measured growth AUC normalised to DMSO control, NCCCNCCSP(=O)(O)O [Amifostine] : 1.01

GET /value?item= C=C1CC[C@@]2(O)[C@H]3Cc4ccc(O)c5c4[C@@]2(CCN3CC2CC2)[C@H]1O5 [Nalmefene hydrochloride] &field=growth AUC normalised to DMSO control returns 1.02

These data points were gathered from the supplement of paper PMC12350171.
